Test protocol: qHTS assay to identify small molecule agonists of the farnesoid-X-receptor (FXR) signaling pathway - cell viability counter screen (AID 743218); also: nearly all actives have a fitted effect of over 45% in size
Stated conditions: FXR-bla HEK293T viability, CellTiter-Glo luminescence, 16 h; series mostly up to 62.6 µM
Inconclusive results are not listed. The source made the active and inactive calls. Calls follow the shape of the dose curve; as a rule, active = well fitted cell-killing curve with a large enough effect in the repeat runs; inconclusive = weak or mixed curves, or effect the other way; inactive = no such curve, though single readings can be large or run the other way.
Give your call using only these classes: active, inactive

Worked examples, 3 molecules total:
Molecule: COc1ccc2c(c1)c(CC(=O)O)c(C)n2C(=O)c1ccc(Cl)cc1
Class name: inactive

Molecule: CCCc1cc(=O)[nH]c(=S)[nH]1
Class name: inactive

Molecule: CN(C)CCOC(C)(c1ccccc1)c1ccccn1 (stereo not drawn)
Class name: inactive

Exercise: Record lookup: outcome of this test for NS(=O)(=O)c1cc2c(cc1Cl)NCNS2(=O)=O ?
Key: inactive

Exercise: Record lookup: outcome of this test for CC(C)c1c(C(=O)Nc2ccccc2)c(-c2ccccc2)c(-c2ccc(F)cc2)n1CC[C@@H](O)C[C@@H](O)CC(=O)O ?
Key: inactive

Exercise: Record lookup: outcome of this test for CCN(Cc1c(F)cccc1Cl)c1c([N+](=O)[O-])cc(C(F)(F)F)cc1[N+](=O)[O-] ?
Key: active

Exercise: Record lookup: outcome of this test for O=C1NC(=O)C(c2ccccc2)(c2ccccc2)N1 ?
Key: inactive

Exercise: Record lookup: outcome of this test for C=C(C)C(=O)OCC(C)O (stereo not drawn) ?
Key: inactive

Exercise: Record lookup: outcome of this test for NC(CO)(CO)CO ?
Key: inactive

Exercise: Record lookup: outcome of this test for CN(C)CCOC(c1ccccc1)c1ccccc1 ?
Key: inactive

Exercise: Record lookup: outcome of this test for COc1ccc(CN(CCN(C)C)c2ccccn2)cc1 ?
Key: inactive

Exercise: Record lookup: outcome of this test for O=C1NS(=O)(=O)c2ccccc21 ?
Key: inactive

Exercise: Record lookup: outcome of this test for Cc1cccc(C)c1 ?
Key: inactive

Exercise: Record lookup: outcome of this test for Cc1cc(=O)oc2cc(O)ccc12 ?
Key: inactive

Exercise: Record lookup: outcome of this test for C=CCc1ccc(O)c(OC)c1 ?
Key: inactive

Exercise: Record lookup: outcome of this test for Cn1c(=O)c2c(ncn2C)n(C)c1=O ?
Key: inactive

Exercise: Record lookup: outcome of this test for CC12CCC(CC1)C(C)(C)O2 ?
Key: inactive

Exercise: Record lookup: outcome of this test for COc1ccc(OC(F)(F)F)cc1CN[C@H]1CCCN[C@H]1c1ccccc1 ?
Key: active

Exercise: Record lookup: outcome of this test for O=CC(=O)c1ccccc1 ?
Key: inactive

Exercise: Record lookup: outcome of this test for O=S1(=O)OC(c2ccc(O)cc2)(c2ccc(O)cc2)c2ccccc21 ?
Key: inactive

Exercise: Record lookup: outcome of this test for Cc1ncc([N+](=O)[O-])n1CCO ?
Key: inactive

Exercise: Record lookup: outcome of this test for CNNCc1ccc(C(=O)NC(C)C)cc1 ?
Key: inactive

Exercise: Record lookup: outcome of this test for CCCCCCc1ccc(O)cc1O ?
Key: inactive

Exercise: Record lookup: outcome of this test for CN1CCC[C@H]1c1cccnc1 ?
Key: inactive

Exercise: Record lookup: outcome of this test for COc1cccc(O)c1O ?
Key: inactive

###

Test protocol: qHTS assay to identify small molecule antagonists of the peroxisome proliferator-activated receptor delta (PPARd) signaling pathway - cell viability counter screen (AID 743213); also: nearly all actives have a fitted effect of over 50% in size
Stated conditions: PPARd-bla HEK293H viability, CellTiter-Glo luminescence, 17 h; series mostly up to 62 µM
Records with an inconclusive call do not appear. Activity calls are given as the source filed them. Calls come from the whole dose curve; as a rule, active = well fitted cell-killing curve with a large enough effect in the repeat runs; inconclusive = weak or mixed curves; inactive = no such curve, though single readings can be large or run the other way.
Give your call using only these classes: active, inactive

Compound: Nc1ccc(O)c([N+](=O)[O-])c1
Class name: inactive
//
Compound: Cc1cn([C@H]2C=C[C@@H](CO)O2)c(=O)[nH]c1=O
Class name: inactive
//
Compound: C=C(C)C(=O)OCC(C)O (configuration not stated)
Class name: inactive

Exercise: Record lookup: outcome of this test for CN(C)CCOC(c1ccccc1)c1ccccc1 ?
Key: inactive

Exercise: Record lookup: outcome of this test for Cc1c(C(=O)O)c(O)cc2c1C(=O)c1c(O)c([C@@H]3O[C@H](CO)[C@@H](O)[C@H](O)[C@H]3O)c(O)c(O)c1C2=O ?
Key: inactive

Exercise: Record lookup: outcome of this test for CN(C)CCOC(C)(c1ccccc1)c1ccccn1 (configuration not stated) ?
Key: inactive

Exercise: Record lookup: outcome of this test for O=C(O)c1ccccc1 ?
Key: inactive

Exercise: Record lookup: outcome of this test for CCCCC1(COC(=O)CCC(=O)O)C(=O)N(c2ccccc2)N(c2ccccc2)C1=O ?
Key: inactive

Exercise: Record lookup: outcome of this test for CC12CCC(CC1)C(C)(C)O2 ?
Key: inactive

Exercise: Record lookup: outcome of this test for Cc1cc(C)nc(NS(=O)(=O)c2ccc(N)cc2)n1 ?
Key: inactive

Exercise: Record lookup: outcome of this test for CCOc1ccc(NC(C)=O)cc1 ?
Key: inactive

Exercise: Record lookup: outcome of this test for CCN(CC)C(=O)c1cccc(C)c1 ?
Key: inactive

###

Test protocol: qHTS assay for small molecules that induce genotoxicity in human embryonic kidney cells expressing luciferase-tagged ATAD5 (AID 651632); also: nearly all actives have a fitted effect of over 15% in size
Stated conditions: HEK293T ATAD5-luciferase induction, 16 h; series mostly up to 83.3 µM
Inconclusive results are not listed. Calls of active or inactive are those of the source. Calls come from the whole dose curve; as a rule, active = well fitted activation curve with a large enough effect in the repeat runs; inconclusive = weak or mixed curves; inactive = no such curve, though single readings can be large or run the other way.
Experimental readout: outcome

# annotated cases, reported outcome shown
Molecule: Cc1c(C(=O)O)c(O)cc2c1C(=O)c1c(O)c([C@@H]3O[C@H](CO)[C@@H](O)[C@H](O)[C@H]3O)c(O)c(O)c1C2=O
outcome: inactive
//
Molecule: Nc1c(N=Nc2ccc(-c3ccc(N=Nc4cc(S(=O)(=O)O)c5ccccc5c4N)cc3)cc2)cc(S(=O)(=O)O)c2ccccc12
outcome: inactive
//
Molecule: NC(=O)n1c(O)c(C(=O)c2cccs2)c2cc(Cl)ccc21
outcome: inactive
//
Molecule: C=CCc1ccc(O)c(OC)c1
outcome: inactive
//
Molecule: O=S1(=O)OC(c2ccc(O)cc2)(c2ccc(O)cc2)c2ccccc21
outcome: inactive
//
Molecule: CC(=O)Nc1c(I)c(NC(C)=O)c(I)c(C(=O)O)c1I
outcome: inactive
//
Molecule: NC1CCCCC1
outcome: inactive
//
Molecule: CCCCC1(COC(=O)CCC(=O)O)C(=O)N(c2ccccc2)N(c2ccccc2)C1=O
outcome: inactive

Exercise: Look up outcome: CN1CCc2cccc3c2[C@H]1Cc1ccc(O)c(O)c1-3
Key: inactive

Exercise: Look up outcome: CC(O)(P(=O)(O)O)P(=O)(O)O
Key: inactive

Exercise: Look up outcome: CC1(C)S[C@@H]2[C@H](NC(=O)[C@H](N)c3ccccc3)C(=O)N2[C@H]1C(=O)O
Key: inactive

Exercise: Look up outcome: COc1ccc(OC(F)(F)F)cc1CN[C@H]1CCCN[C@H]1c1ccccc1
Key: inactive

###

Test protocol: qHTS assay to identify small molecule agonists of the estrogen receptor beta (ER-beta) signaling pathway - cell viability counter screen (AID 1259380); also: nearly all actives have a fitted effect of over 30% in size
Stated conditions: ER-beta-bla HEK293T viability, CellTiter-Glo luminescence, 16 h; series mostly up to 92.4 µM
Results filed as inconclusive are left out. The source made the active and inactive calls. Calls come from the whole dose curve; as a rule, active = well fitted cell-killing curve with a large enough effect in the repeat runs; inconclusive = weak or mixed curves, or effect the other way; inactive = flat fitted curve, though single readings scatter.
Give your call using only these classes: 1 for active, -1 for inactive

Worked examples, 2 compounds total:
Compound: Nc1c2c(nc3ccccc13)CCCC2
Class name: -1
//
Compound: C=C1CC[C@H](O)C/C1=C\C=C1/CCC[C@]2(C)[C@@H]([C@H](C)CCCC(C)C)CC[C@@H]12
Class name: 1

Exercise: Record lookup: outcome of this test for CC(=O)CC(c1ccccc1)c1c(O)c2ccccc2oc1=O (stereo not drawn) ?
Key: -1

Exercise: Record lookup: outcome of this test for C1=CC2C3C=CC(C3)C2C1 (stereo not drawn) ?
Key: -1

Exercise: Record lookup: outcome of this test for O=C1NC(=O)C(c2ccccc2)(c2ccccc2)N1 ?
Key: -1

Exercise: Record lookup: outcome of this test for CC1(C)O[C@@H]2C[C@H]3[C@@H]4CCC5=CC(=O)C=C[C@]5(C)[C@@]4(F)[C@@H](O)C[C@]3(C)[C@]2(C(=O)CO)O1 ?
Key: -1

Exercise: Record lookup: outcome of this test for COc1ccc(OC(F)(F)F)cc1CN[C@H]1CCCN[C@H]1c1ccccc1 ?
Key: 1

Exercise: Record lookup: outcome of this test for CN[C@H]1CC[C@@H](c2ccc(Cl)c(Cl)c2)c2ccccc21 ?
Key: 1

Exercise: Record lookup: outcome of this test for CCCCC(CC)C(=O)O (stereo not drawn) ?
Key: -1

Exercise: Record lookup: outcome of this test for Cc1cn([C@H]2C=C[C@@H](CO)O2)c(=O)[nH]c1=O ?
Key: -1

Exercise: Record lookup: outcome of this test for CCCCNC(=O)NS(=O)(=O)c1ccc(C)cc1 ?
Key: -1

Exercise: Record lookup: outcome of this test for CCN(Cc1c(F)cccc1Cl)c1c([N+](=O)[O-])cc(C(F)(F)F)cc1[N+](=O)[O-] ?
Key: 1

Exercise: Record lookup: outcome of this test for O=C(O)CC(O)C(=O)O (stereo not drawn) ?
Key: -1

Exercise: Record lookup: outcome of this test for O=c1[nH]cnc2c1ncn2[C@H]1CC[C@@H](CO)O1 ?
Key: -1

Exercise: Record lookup: outcome of this test for Cc1c(C(=O)O)c(O)cc2c1C(=O)c1c(O)c([C@@H]3O[C@H](CO)[C@@H](O)[C@H](O)[C@H]3O)c(O)c(O)c1C2=O ?
Key: -1

Source of measurements: PubChem BioAssay (Tox21)
